TEST TARGET: human group 1B PLA2 (hps PLA2) (Homo sapiens)
Construct: made in house; host or cells: E. coli
ASSAY REMARKS: Fluorimetric PPyrPM assay for group 1B PLA2 inhibition (Example 12)
Type: biochemical
REPORTED ENDPOINT: pIC50
Conceptually, pIC50 converts a concentration in mol/L into minus its log10.

Reference set, count: 4
COMPOUND	REPORTED ENDPOINT	RECORDED VALUE
Cc1c(C(=O)C(N)=O)c2c(OCC(=O)NS(C)(=O)=O)nccc2n1Cc1ccccc1-c1ccccc1	pIC50	6.16
Cc1c(C(=O)C(N)=O)c2c(OCC(=O)O)nccc2n1Cc1ccccc1	pIC50	5.94
CCC(Oc1cccc2c1c(C(=O)C(N)=O)c(C)n2Cc1ccccc1)C(=O)O (centres unmarked)	pIC50	6.74
CCC(Oc1nccc2c1c(C(=O)C(N)=O)c(C)n2Cc1ccccc1)C(=O)O (centres unmarked)	pIC50	6.32

We next turn to a different compound, shown below.
q: Would you kindly share the measured pIC50 for Cc1c(C(=O)C(N)=O)c2c(OCC(=O)O)nccc2n1Cc1ccccc1-c1ccccc1 ?
a: 7.10

====

TEST TARGET: human group 1B PLA2 (hps PLA2) (Homo sapiens, UniProt P04054)
Construct: made in house; host or cells: E. coli
Sequence (P04054 23-148): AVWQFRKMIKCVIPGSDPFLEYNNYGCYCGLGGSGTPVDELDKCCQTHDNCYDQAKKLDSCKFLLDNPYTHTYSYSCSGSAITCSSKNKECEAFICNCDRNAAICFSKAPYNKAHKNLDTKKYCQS
ASSAY REMARKS: Fluorimetric PPyrPM assay for group 1B PLA2 inhibition (Example 12)
Format: biochemical
TEST SETTINGS: read-out: ILYPSA % inhibition at 15 μM hps PLA2; 15 μM, human pancreas secreted PLA2
inhibition at 15 µM below 40% gives -1; inhibition at 15 µM at or above it gives 1.

These solved cases illustrate the format of a correct answer.
MOLECULE	CATEGORY
COC(=O)C(Oc1cccc2c1c(C(=O)C(N)=O)c(C)n2Cc1ccccc1)C(=O)O (stereo not shown) [ILY-IV-59]	-1
Cc1c(C(=O)C(N)=O)c2c(OC(CCC(=O)O)C(=O)O)cccc2n1Cc1ccccc1 (stereo not shown) [ILY-IV-33]	-1
Cc1c(C(=O)C(N)=O)c2c(OC(C(=O)O)c3ccccc3)cccc2n1Cc1ccccc1 (stereo not shown) [ILY-IV-32]	1
Cc1c(C(=O)C(N)=O)c2c(OCC(=O)NC(CC(=O)O)C(=O)O)nccc2n1Cc1ccccc1 (stereo not shown) [ILY-II-12]	-1
Cc1c(C(=O)C(N)=O)c2c(OC(F)(C(=O)O)C(F)(F)Br)cccc2n1Cc1ccccc1 (stereo not shown) [ILY-IV-55]	-1

q: Please check the record Cc1c(C(=O)C(N)=O)c2c(OCC(=O)O)c(Br)ccc2n1Cc1ccccc1 [ILY-IV-3] and state if its inhibition at 15 µM is at or above 40%.
a: -1

q: Could you tell me if the measured inhibition at 15 µM of C=CCn1c(C)c(C(=O)C(N)=O)c2c(OCC(=O)O)cccc21 [ILY-V-10] reaches 40% or more?
a: 1

q: Is it the case that Cc1c(C(=O)C(N)=O)c2c(OC(C(N)=O)C(C)C)cccc2n1Cc1ccccc1 (stereo not shown) [ILY-IV-45] has inhibition at 15 µM reaching or exceeding 40%?
a: 1

q: Given Cc1c(C(=O)C(N)=O)c2c(OC(F)C(=O)O)cccc2n1Cc1ccccc1 (stereo not shown) [ILY-IV-24] , state whether its inhibition at 15 µM is at least 40%.
a: 1

====

Listed here are molecules together with their documented IC50.
TEST TARGET: porcine group 1B PLA2 (pps PLA2) (Sus scrofa)
Construct: purchased
Sequence (P00592 23-146): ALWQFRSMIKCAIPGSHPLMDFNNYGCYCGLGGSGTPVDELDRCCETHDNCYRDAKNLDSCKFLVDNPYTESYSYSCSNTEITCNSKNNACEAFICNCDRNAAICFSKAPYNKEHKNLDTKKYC
ASSAY REMARKS: Fluorimetric PPyrPM assay for group 1B PLA2 inhibition (Example 12)
Type: biochemical

SUBSTANCE SMILES	TEST TARGET	IC50
Cc1c(C(=O)C(N)=O)c2c(OCC(=O)O)nccc2n1Cc1ccccc1	porcine group 1B PLA2 (pps PLA2) (Sus scrofa)	70 nM

q: Give its IC50 value. Item: Cc1c(C(=O)C(N)=O)c2c(OCC(=O)NS(C)(=O)=O)nccc2n1Cc1ccccc1-c1ccccc1
a: 40 nM

====

TEST TARGET: Porcine PLA2 IB (Sus scrofa, UniProt P00592)
Sequence (P00592 23-146): as above
REPORTED ENDPOINT: IC50

q: Fill in: IC50 of Cc1c(C(=O)C(N)=O)c2c(OCC(=O)O)cccc2n1Cc1ccccc1-c1ccccc1 [ILY-4001] is ___
a: ~0.062 µM

====

TEST TARGET: mouse group 1B PLA2 (mps PLA2) (Mus musculus, UniProt Q9Z0Y2)
Construct: made in house; host or cells: E. coli
Sequence (Q9Z0Y2 23-146): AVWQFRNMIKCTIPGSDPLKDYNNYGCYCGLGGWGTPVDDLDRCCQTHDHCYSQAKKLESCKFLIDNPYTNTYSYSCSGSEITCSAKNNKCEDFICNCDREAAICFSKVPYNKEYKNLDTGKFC
ASSAY REMARKS: Fluorimetric PPyrPM assay for group 1B PLA2 inhibition (Example 12)
Type: biochemical
TEST SETTINGS: mouse pancreas secreted PLA2; read-out: ILYPSA IC50 mps PLA2
Listed here are molecules together with their documented pIC50.
Just the number, please; pIC50 means minus log10 of the concentration in mol/L.

MOLECULE	pIC50
Cc1c(C(=O)C(N)=O)c2c(OCC(=O)O)ccc([N+](=O)[O-])c2n1Cc1ccccc1 [ILY-IV-29]	6.48
Cc1ccc(S(=O)(=O)NC(=O)COc2cccc3c2c(C(=O)C(N)=O)c(C)n3Cc2ccccc2)cc1 [ILY-IV-26]	5.51
Cc1c(C(=O)C(N)=O)c2c(OC(CC(C)C)C(=O)O)cccc2n1Cc1ccccc1 (stereo not shown) [ILY-IV-47]	5.61

q: # query: pIC50 of entry Cc1c(C(=O)C(N)=O)c2c(OC(F)C(N)=O)cccc2n1Cc1ccccc1 (stereo not shown) [ILY-IV-28]
a: 5.84

====

TEST TARGET: mouse group 1B PLA2 (mps PLA2) (Mus musculus, UniProt Q9Z0Y2)
Construct: made in house; host or cells: E. coli
ASSAY REMARKS: Fluorimetric PPyrPM assay for group 1B PLA2 inhibition (Example 12)
Type: biochemical
TEST SETTINGS: mouse pancreas secreted PLA2; read-out: ILYPSA IC50 mps PLA2
REPORTED ENDPOINT: pIC50
Please report pIC50 as the negative decimal logarithm of the molar concentration, giving only the number.

// below: answered compounds
SUBSTANCE SMILES	pIC50
Cc1c(C(=O)C(N)=O)c2c(OCC(=O)O)cccc2n1CCCCCCCCCCCCNCCCCCCCCCCCCn1c(C)c(C(=O)C(N)=O)c2c(OCC(=O)O)cccc21	7.15
Cc1c(C(=O)C(N)=O)c2c(OCC(=O)O)cccc2n1CCCCCCCCCCCCOc1ccccc1OCCCCCCCCCCCCn1c(C)c(C(=O)C(N)=O)c2c(OCC(=O)O)cccc21	6.70
Cc1c(C(=O)C(N)=O)c2c(OCC(=O)NS(C)(=O)=O)nccc2n1Cc1ccccc1	5.98
Cc1c(C(=O)C(N)=O)c2c(OCC(=O)O)cccc2n1CCCCCCCCCCCCSCCCCCCCCCCCCn1c(C)c(C(=O)C(N)=O)c2c(OCC(=O)O)cccc21	6.10

q: Provide the documented pIC50 with mouse group 1B PLA2 (mps PLA2) (Mus musculus, UniProt Q9Z0Y2) as the system for CCCCCCCCn1c(C)c(C(=O)C(N)=O)c2c(OCC(=O)O)nccc21
a: 6.92

q: Kindly state the measured pIC50 obtained for CCc1c(C(=O)C(N)=O)c2c(OCC(=O)O)nccc2n1Cc1ccccc1 with mouse group 1B PLA2 (mps PLA2) (Mus musculus, UniProt Q9Z0Y2).
a: 6.46

q: mouse group 1B PLA2 (mps PLA2) (Mus musculus, UniProt Q9Z0Y2) / pIC50 / Cc1c(C(=O)C(N)=O)c2c(OCC(=O)O)ccc(Br)c2n1Cc1ccccc1 : value?
a: 6.44

====

pIC50: recorded values
TEST TARGET: mouse group 1B PLA2 (mps PLA2) (Mus musculus, UniProt Q9Z0Y2)
Construct: made in house; host or cells: E. coli
ASSAY REMARKS: Fluorimetric PPyrPM assay for group 1B PLA2 inhibition (Example 12)
Format: biochemical
Description: In this example, a fluorimetric assay procedure was used to evaluate the indole and indole-related compounds of the invention as inhibitors of group 1B phospholipase A2 (PLA2) from human, mouse and porcine. […] In general, this assay used a phosphatidylmethanol substrate with a pyrene fluorophore on the terminal end of the sn-2 fatty acyl chain. […] The effect of a given inhibitor and inhibitor concentration on human, mouse and porcine phospholipase was determined. […]
In plain terms, pIC50 is the concentration in mol/L turned into minus its base-10 logarithm.

Previously resolved entries follow.
COMPOUND	pIC50
Cc1c(C(=O)C(N)=O)c2c(OCC(=O)O)nccc2n1Cc1ccccc1 [ILY-II-1]	6.64
Cc1c(C(=O)C(N)=O)c2c(OCC(=O)NS(C)(=O)=O)nccc2n1Cc1ccccc1-c1ccccc1 [ILY-II-14]	6.23
CCC(Oc1nccc2c1c(C(=O)C(N)=O)c(C)n2Cc1ccccc1)C(=O)O (stereo not shown) [ILY-II-11]	7.52

Now consider a different compound.
q: May I ask what pIC50 has been recorded for Cc1c(C(=O)C(N)=O)c2c(OCC(=O)O)nccc2n1Cc1ccccc1-c1ccccc1 [ILY-II-4] ?
a: 7.15
